experiment-description: Tmax in Wistar rat at 10 mg/kg, po
Format: ADME, organism-based
Set-up: dose 10 mg/kg, route oral
run-conditions: in vivo
Reported Tmax is given for each of the following compounds.

compound: CCc1cc(CCC(=O)c2sc(CC)c3c2CCC(C)(C)C3)cc(C)c1OCC(O)CNC(=O)CO (racemic)
unit-abbrev: h
Tmax: 0.5
--
compound: CCc1cc(-c2noc(-c3sc(CC)c4c3CCC(C)(C)C4)n2)cc(C)c1OC[C@@H](O)CNC(=O)CO
unit-abbrev: h
Tmax: 6

---

experiment-description: Lipophilicity, log D of the compound at pH 7.4
Assay type: physicochemical
run-conditions: buffer
measured-parameter: logD

smiles-structure: CCc1cc(-c2noc(-c3sc(CC)c4c3CCC(C)(C)C4)n2)cc(C)c1OCCNCCC(=O)O
result: 4.9
//
smiles-structure: CCc1cc(-c2noc(-c3sc(CC)c4c3CCC(C)(C)C4)n2)cc(C)c1OC[C@@H](O)CNC(=O)CO
result: 4.3
//
smiles-structure: CCc1cc(-c2noc(-c3sc(CC)c4c3CCC(C)(C)C4)n2)cc(C)c1OC[C@@H](O)CO
result: 5.4

---

experiment-description: Plasma concentration in Wistar rat at 10 mg/kg, po after 6 days
Format: ADME, organism-based
Parameters: dose 10 mg/kg, route oral

smiles-structure: CCc1cc(-c2noc(-c3sc(CC)c4c3CCC(C)(C)C4)n2)cc(C)c1OC[C@@H](O)CNC(=O)CO
unit-abbrev: ng/mL
concentration at 144 h: 66

---

system: Sphingosine 1-phosphate receptor 1 (Homo sapiens, UniProt P21453)
Sequence (P21453 whole entry): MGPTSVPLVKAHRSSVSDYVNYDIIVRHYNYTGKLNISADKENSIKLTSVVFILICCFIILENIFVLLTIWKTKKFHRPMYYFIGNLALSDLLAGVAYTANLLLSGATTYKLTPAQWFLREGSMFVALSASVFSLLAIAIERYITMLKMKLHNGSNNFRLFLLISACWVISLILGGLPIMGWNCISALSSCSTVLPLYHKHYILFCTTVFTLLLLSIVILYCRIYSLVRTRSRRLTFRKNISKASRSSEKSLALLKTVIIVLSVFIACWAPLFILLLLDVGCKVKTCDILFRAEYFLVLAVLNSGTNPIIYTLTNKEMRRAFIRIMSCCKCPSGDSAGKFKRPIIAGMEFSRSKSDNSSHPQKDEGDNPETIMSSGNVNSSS
experiment-description: Agonist activity at human recombinant S1P1 receptor expressed in CHO cells assessed as membrane-bound 35S-GTPgammaS incubated 30 mins prior to substrate addition measured after 1 hr by topcount scintillation counting analysis
pEC50: −log10 of the molar value.
Reported pEC50 is given for each of the following molecules.

molecule: CCc1sc(C(=O)CCc2cc(C)c(OCC(O)CO)c(C)c2)c2c1C[C@@H](O)CC2 (mixture of isomers)
pEC50: 6.07

molecule: CCc1sc(C(=O)CCc2cc(C)c(OCC(O)CO)c(C)c2)c2c1CC(C)CC2 (mixture of isomers)
pEC50: 8.80

molecule: CCc1cc(-c2noc(-c3sc(CC)c4c3CCC(C)(C)C4)n2)cc(C)c1OC[C@@H](O)CO
pEC50: 8.62

molecule: CCc1cc(-c2noc(-c3sc(CC)c4c3CCC(CC)(CC)C4)n2)cc(C)c1OC[C@@H](O)CNC(=O)CO
pEC50: 8.22

molecule: CCc1cc(CCC(=O)c2sc(CC)c3c2CCC(C)(C)C3)cc(C)c1OCC(O)CNC(=O)CO (racemic)
pEC50: 9.22

molecule: Cc1cc(CCC(=O)c2sc(C)c3c2CCC(C)(C)C3)cc(C)c1O
pEC50: 7.68

molecule: CCc1cc(-c2noc(-c3sc(CC)c4c3CCCC4)n2)cc(C)c1OC[C@@H](O)CNC(=O)CO
pEC50: 9.05

molecule: Cc1cc(CCC(=O)c2sc(C)c3c2CCC(C)(C)C3)cc(C)c1CCC(=O)O
pEC50: 7.68

molecule: CCc1sc(C(=O)CCc2cc(C)c(OC[C@@H](O)CO)c(C)c2)c2c1CC(C)(C)CC2
pEC50: 9.40

molecule: Cc1cc(CCC(=O)c2sc(C)c3c2CCC(C)(C)C3)cc(C)c1OCCCO
pEC50: 7.15

molecule: Cc1cc(CCC(=O)c2sc(C)c3c2CCC(C)(C)C3)cc(C)c1OCC(O)CN (racemic)
pEC50: 8.15

molecule: CCc1cc(CCC(=O)c2sc(C(F)(F)F)c3c2CCC(C)(C)C3)cc(C)c1OCC(O)CNC(=O)CO (racemic)
pEC50: 8.89

molecule: Cc1cc(CCC(=O)c2sc(C)c3c2CCC(C)(C)C3)cc(C)c1OCCN
pEC50: 8.21

molecule: CCCc1ccc(-c2nc(-c3cc(C)c(OCC(O)CNC(=O)CO)c(C)c3)no2)s1 (racemic)
pEC50: 9.05

molecule: CCc1ccc(-c2nc(-c3cc(C)c(OCC(O)CNC(=O)CO)c(C)c3)no2)s1 (racemic)
pEC50: 8.37

molecule: Cc1cc(CCC(=O)c2sc(C)c(CC(C)C)c2C)cc(C)c1OCC(O)CNC(=O)CO (racemic)
pEC50: 8.57

molecule: CCc1sc(C(=O)CCc2cc(C)c(OC[C@@H](O)CO)c(C)c2)c2c1CC1(CC2)CC1
pEC50: 8.96

molecule: Cc1cc(CCC(=O)c2sc(C)c3c2CCC(C)(C)C3)cc(C)c1OCC(O)CN1CC(C(=O)O)C1 (racemic)
pEC50: 8.37

molecule: CCc1cc(-c2noc(-c3sc(OC)c4c3CCC(C)(C)C4)n2)cc(C)c1OC[C@@H](O)CNC(=O)CO
pEC50: 8.74

molecule: Cc1cc(-c2noc(-c3cc(CC(C)C)c(C)s3)n2)cc(C)c1OCC(O)CNC(=O)CO (racemic)
pEC50: 8.82

molecule: CCc1sc(C(=O)CCc2cc(C)c(OC[C@@H](O)CO)c(C)c2)c2c1CC1(CCCC1)CC2
pEC50: 9.40

molecule: CCc1cc(-c2noc(-c3sc(CC)c4c3CCC(C)(C)C4)n2)cc(C)c1OC[C@@H](O)CNC(=O)CO
pEC50: 8.34

molecule: Cc1cc(CCC(=O)c2sc(C)c3c2CCC(C)(C)C3)cc(C)c1OCCCNCCO
pEC50: 7.32

molecule: CCc1cc(-c2noc(-c3scc4c3CCC(C)(C)C4)n2)cc(C)c1OCC(O)CNC(=O)CO (racemic)
pEC50: 8.77

molecule: Cc1cc(-c2noc(-c3ccc(CC(C)C)s3)n2)cc(C)c1OCC(O)CNC(=O)CO (racemic)
pEC50: 9.22

molecule: CCc1cc(-c2noc(-c3sc(C)c4c3CCC(C)(C)C4)n2)cc(C)c1OCC(O)CNC(=O)CO (racemic)
pEC50: 8.82

Attribution: ChEMBL document CHEMBL3120099
